Test system: OVCAR-5 ovarian
assay-method-text: NCI tumour cell line growth inhibition, 48 h
observable: TGI

- molecule: "N#CCc1nc(-c2cc3ccccc3oc2=O)cs1"
  TGI: "> 100 µM"
- molecule: "COc1cc(/C=C/C(=O)c2nc3cc(F)ccc3nc2C)cc(OC)c1OC"
  TGI: "> 100 µM"
- molecule: "CCN(C(=O)N[C@@H](CC(C)C)C(=O)NCC(=O)OC)c1ccccc1"
  TGI: "> 100 µM"
- molecule: "NS(=O)(=O)c1cc2c(cc1Cl)NCNS2(=O)=O"
  TGI: "> 100 µM"

Any idea what TGI was measured for CC1(c2ccc(Cl)cc2)C=C(c2ccc(Cl)cc2)C(C#N)=C(C(C#N)C#N)N1 (stereo unspecified) ?
33 µM

Return reported TGI; argument: O=C1C[C@@H]2OCC=C3C[N+]4([O-])CC[C@]56c7ccccc7N1[C@H]5[C@H]2[C@H]3C[C@@H]64 (stereo partly specified)
> 100 µM
